target: HLA-A*31:01; assay: IEDB peptide-MHC binding, purified MHC/direct/fluorescence; filed as Kd, often an IC50 or EC50 that approximates it; bounds were set here for any values at or beyond the usual limits of such assays; details: source organism: Yellow fever virus
pKd: −log10 of the molar value.
measurement_label: pKd

Consider TKDTNDNNL . Its measured pKd is ≤ 4.70

---

target: HLA-B*73:01; experiment: IEDB peptide-MHC binding, purified MHC/competitive/fluorescence; filed as Kd, often an IC50 or EC50 that approximates it; bounds were set here for any values at or beyond the usual limits of such assays; conditions: source organism: Clostridium novyi NT
measurement_label: Kd

Consider SRDYYRHKV . Its measured Kd is 3.62 µM

---

biological target: HLA-A*29:02; assay: IEDB peptide-MHC binding, purified MHC/competitive/fluorescence; filed as Kd, often an IC50 or EC50 that approximates it; bounds were set here for any values at or beyond the usual limits of such assays; conditions: source organism: Rickettsia felis URRWXCal2
measurement_label: pKd
Give bare numbers, as −log10 of the molar value.

// pKd (HLA-A*29:02) for QYLFSLTYV = 5.10

---

target: HLA-B*58:01; assay: IEDB peptide-MHC binding, purified MHC/direct/fluorescence; filed as Kd, often an IC50 or EC50 that approximates it; bounds were set here for any values at or beyond the usual limits of such assays; conditions: source organism: Cryptosporidium parvum
measurement_label: pKd
Answers are plain numbers, as −log10 of the molar value.

Consider KACPPGFVF . Its measured pKd is 7.75

---

target: HLA-A*24:02; experiment: IEDB peptide-MHC binding, purified MHC/direct/fluorescence; filed as Kd, often an IC50 or EC50 that approximates it; bounds were set here for any values at or beyond the usual limits of such assays; settings: source organism: Giardia lamblia ATCC 50803
measurement_label: pKd
One number for each entry, as −log10 of the molar value.

Consider RYMRVYNLW . Its measured pKd is 8.70

---

target: HLA-A*02:03; experiment: IEDB peptide-MHC binding, purified MHC/competitive/fluorescence; filed as Kd, often an IC50 or EC50 that approximates it; bounds were set here for any values at or beyond the usual limits of such assays; conditions: source organism: Influenza A virus (A/Fort Monmouth/1/1947-mouse adapted(H1N1))
measurement_label: Kd

Consider SSDDFALIV . Its measured Kd is ≥ 20 µM

---

I'd be grateful if you could share measured Kd for these entries.
target: HLA-A*24:03; assay: IEDB peptide-MHC binding, purified MHC/direct/fluorescence; filed as Kd, often an IC50 or EC50 that approximates it; bounds were set here for any values at or beyond the usual limits of such assays; details: source organism: Giardia intestinalis
For clarity, give the value followed by its unit.

DYAMHGTVF; 2.36 µM

Query sequence follows.
Consider GYTPGQQFY . Its measured Kd is 5.42 µM

---

target: HLA-A*24:02; experiment: IEDB peptide-MHC binding, purified MHC/competitive/fluorescence; bounds were set here for any values at or beyond the usual limits of such assays; conditions: source organism: Zaire ebolavirus
Field 'label' (enum: Fulfilled / Not fulfilled). Set to Fulfilled when IC50 is strictly under 9 µM; else Not fulfilled.

Solved entries (count: 3):
RQTQSRPIQ; Not fulfilled
EYLFEVDNL; Fulfilled
NLEEICQLI; Not fulfilled

Take the sequence KFMAILQHH and say whether its IC50 is less than 9 µM. Not fulfilled

Take the sequence ITDKIDQII and say whether its IC50 is less than 9 µM. Fulfilled

Take the sequence FFLWVIILF and say whether its IC50 is less than 9 µM. Not fulfilled

Take the sequence DRFKRTSFF and say whether its IC50 is less than 9 µM. Fulfilled

---

target: HLA-B*39:01; experiment: IEDB peptide-MHC binding, purified MHC/competitive/fluorescence; filed as Kd, often an IC50 or EC50 that approximates it; bounds were set here for any values at or beyond the usual limits of such assays; conditions: source organism: Rickettsia felis URRWXCal2
measurement_label: Kd

Consider QYLFSLTYV . Its measured Kd is ≥ 20 µM

---

molecular target: HLA-A*68:01; assay: IEDB peptide-MHC binding, purified MHC/competitive/radioactivity; filed as Kd, often an IC50 or EC50 that approximates it; bounds were set here for any values at or beyond the usual limits of such assays; conditions: source organism: SARS coronavirus Tor2
measurement_label: pKd
Give bare numbers, as −log10 of the molar value.

Solved entries (count: 5):
GVAMPNLYK; 8.16
VFHLYLQYIR; 6.06
ATFSVPMEK; 9.79
KTQFNYFKK; 5.55
TSFGPLVRK; 8.15

Each of the following entries comes with a recorded value; kindly state pKd for each.
1. TFFIFNKLVK
2. QQQQGQTVTK
3. SFGGASCCLY

1. 6.31
2. 4.95
3. 6.74

Each of the following entries comes with a recorded value; kindly state pKd for each.
1. VVMDYLDNLK
2. SSNVANYQK
3. VTGLFKDCSK
4. MSLYMAISPK

5.17
7.26
4.99
7.97

Each of the following entries comes with a recorded value; kindly state pKd for each.
1. NTCDGNTFTY
2. RAFDIYNEK

1: 5.97; 2: 6.42

---

biological target: HLA-A*02:03; assay: IEDB peptide-MHC binding, purified MHC/direct/fluorescence; filed as Kd, often an IC50 or EC50 that approximates it; bounds were set here for any values at or beyond the usual limits of such assays; conditions: source organism: Brucella suis 1330
measurement_label: Kd (nM)
Numbers only, in nM.

Consider KLYERNTAF . Its measured Kd is 27

---

target: HLA-A*11:01; experiment: IEDB peptide-MHC binding, purified MHC/competitive/radioactivity; filed as Kd, often an IC50 or EC50 that approximates it; bounds were set here for any values at or beyond the usual limits of such assays; settings: source organism: Dengue virus 2 Jamaica/1409/1983
measurement_label: Kd (nM)
Give bare numbers, in nM.

Consider RVSTVQQLTK . Its measured Kd is 204

---

biological target: HLA-B*18:01; assay: IEDB peptide-MHC binding, purified MHC/competitive/fluorescence; filed as Kd, often an IC50 or EC50 that approximates it; bounds were set here for any values at or beyond the usual limits of such assays; conditions: source organism: Vibrio antiquarius
measurement_label: pKd
One number for each entry, as −log10 of the molar value.

// pKd (HLA-B*18:01) for FDLFGITLY = 6.55

---

target: HLA-B*40:01; test: IEDB peptide-MHC binding, purified MHC/direct/fluorescence; filed as Kd, often an IC50 or EC50 that approximates it; bounds were set here for any values at or beyond the usual limits of such assays; conditions: source organism: Influenza A virus (A/whooper swan/Mongolia/6/05(H5N1))
measurement_label: Kd

Consider SSDDFALIV . Its measured Kd is ≥ 20 µM

---

target: HLA-A*02:11; experiment: IEDB peptide-MHC binding, purified MHC/direct/fluorescence; filed as Kd, often an IC50 or EC50 that approximates it; bounds were set here for any values at or beyond the usual limits of such assays; details: source organism: Brucella suis 1330
measurement_label: pKd
Give bare numbers, as −log10 of the molar value.

Consider KLYERNTAF . Its measured pKd is 8.05

---

target: HLA-A*02:01; assay: IEDB peptide-MHC binding, purified MHC/competitive/fluorescence; filed as Kd, often an IC50 or EC50 that approximates it; bounds were set here for any values at or beyond the usual limits of such assays; conditions: source organism: human gammaherpesvirus 4
measurement_label: Kd (nM)
Numbers only, in nM.

// Kd (HLA-A*02:01) for TLFIGSHVV = 1.4

---

target: HLA-A*03:01; assay: IEDB peptide-MHC binding, purified MHC/competitive/fluorescence; filed as Kd, often an IC50 or EC50 that approximates it; bounds were set here for any values at or beyond the usual limits of such assays; conditions: source organism: Cryptosporidium parvum Iowa II
measurement_label: Kd

Consider KSWLVHWSL . Its measured Kd is ≥ 20 µM

---

target: HLA-A*31:01; assay: IEDB peptide-MHC binding, purified MHC/competitive/fluorescence; bounds were set here for any values at or beyond the usual limits of such assays; settings: source organism: Homo sapiens
measurement_label: pIC50
Answers are plain numbers, as −log10 of the molar value.

Consider VTMGTGTFGR . Its measured pIC50 is 6.45

---

biological target: HLA-B*27:05; assay: IEDB peptide-MHC binding, purified MHC/direct/fluorescence; filed as Kd, often an IC50 or EC50 that approximates it; bounds were set here for any values at or beyond the usual limits of such assays; settings: source organism: Escherichia coli O157:H7
measurement_label: Kd

Consider PSSKPDWFY . Its measured Kd is ≥ 20 µM

---

target: HLA-A*02:19; assay: IEDB peptide-MHC binding, purified MHC/direct/fluorescence; filed as Kd, often an IC50 or EC50 that approximates it; bounds were set here for any values at or beyond the usual limits of such assays; details: source organism: Bacillus anthracis str. A0465
measurement_label: Kd

Consider RLLRFTGLF . Its measured Kd is ≥ 20 µM
